Below, each entry is listed alongside its reported relative viability.
tested on: LXF-289; test: relative viability (nuclei count vs DMSO), 5 days (fraction); higher = more cells survive; settings: first compound 0.2 µM
ATTRIBUTE MEASURED: relative viability

compound="Cc1csc(=NC2CCCCC2)n1/N=C/c1ccc(O)c(O)c1O [MIM1] + CS(=O)(=O)CCNCc1ccc(-c2ccc3ncnc(Nc4ccc(OCc5cccc(F)c5)c(Cl)c4)c3c2)o1 [Lapatinib] (partner 2 µM)" target_entity=LXF-289 observed=0.868
compound="CN1CCN(CCOc2cc(OC3CCOCC3)c3c(Nc4c(Cl)ccc5c4OCO5)ncnc3c2)CC1 [Saracatinib] + CS(=O)(=O)N1CCN(Cc2cc3nc(-c4cccc5[nH]ncc45)nc(N4CCOCC4)c3s2)CC1 [Pictilisib] (partner 1 µM)" target_entity=LXF-289 observed=0.731
compound="Cc1csc(=NC2CCCCC2)n1/N=C/c1ccc(O)c(O)c1O [MIM1] + CCNC(=O)c1noc(-c2cc(C(C)C)c(O)cc2O)c1-c1ccc(CN2CCOCC2)cc1 [Luminespib] (partner 0.01 µM)" target_entity=LXF-289 observed=0.708
compound="CCNC(=O)c1noc(-c2cc(C(C)C)c(O)cc2O)c1-c1ccc(CN2CCOCC2)cc1 [Luminespib] + CC(=O)c1c(C)c2cnc(Nc3ccc(N4CCNCC4)cn3)nc2n(C2CCCC2)c1=O [Palbociclib] (partner 0.5 µM)" target_entity=LXF-289 observed=0.535

====

In this section we review reported relative viability values for a set of molecules.
tested on: NCI-H2342; assay: relative viability (nuclei count vs DMSO), 5 days (fraction); higher = more cells survive; conditions: first compound 0.003162 µM
ATTRIBUTE MEASURED: relative viability

molecule="Cc1cn(-c2cc(NC(=O)c3ccc(C)c(Nc4nccc(-c5cccnc5)n4)c3)cc(C(F)(F)F)c2)cn1 [Nilotinib] + CC(=O)c1c(C)c2cnc(Nc3ccc(N4CCNCC4)cn3)nc2n(C2CCCC2)c1=O [Palbociclib] (partner 0.5 µM)" observed=0.559
molecule="Cc1cn(-c2cc(NC(=O)c3ccc(C)c(Nc4nccc(-c5cccnc5)n4)c3)cc(C(F)(F)F)c2)cn1 [Nilotinib] + Cc1nc(Nc2ncc(C(=O)Nc3c(C)cccc3Cl)s2)cc(N2CCN(CCO)CC2)n1 [Dasatinib] (partner 0.075 µM)" observed=0.303
molecule="Cc1cn(-c2cc(NC(=O)c3ccc(C)c(Nc4nccc(-c5cccnc5)n4)c3)cc(C(F)(F)F)c2)cn1 [Nilotinib] + O=C(CCCCCCC(=O)Nc1ccccc1)NO [Vorinostat] (partner 1 µM)" observed=0.685
molecule="Cc1cn(-c2cc(NC(=O)c3ccc(C)c(Nc4nccc(-c5cccnc5)n4)c3)cc(C(F)(F)F)c2)cn1 [Nilotinib] + Cc1cc(Nc2cc(N3CCN(C)CC3)nc(Sc3ccc(NC(=O)C4CC4)cc3)n2)n[nH]1 [Tozasertib] (partner 0.1 µM)" observed=0.561

====

Readings of relative viability for the listed compounds
system: NCI-H647; assay: relative viability (nuclei count vs DMSO), 5 days (fraction); higher = more cells survive; settings: first compound 20 µM
ATTRIBUTE MEASURED: relative viability

compound="Cc1csc(=NC2CCCCC2)n1/N=C/c1ccc(O)c(O)c1O [MIM1] + CS(=O)(=O)CCNCc1ccc(-c2ccc3ncnc(Nc4ccc(OCc5cccc(F)c5)c(Cl)c4)c3c2)o1 [Lapatinib] (partner 2 µM)" attribute_measured="relative viability" observed=0.104
compound="Cc1csc(=NC2CCCCC2)n1/N=C/c1ccc(O)c(O)c1O [MIM1] + O=C(CCCCCCC(=O)Nc1ccccc1)NO [Vorinostat] (partner 1 µM)" attribute_measured="relative viability" observed=0.104
compound="Cc1csc(=NC2CCCCC2)n1/N=C/c1ccc(O)c(O)c1O [MIM1] + Cc1nc(NC(=O)N2CCC[C@H]2C(N)=O)sc1-c1ccnc(C(C)(C)C(F)(F)F)c1 [Alpelisib] (partner 2 µM)" attribute_measured="relative viability" observed=0.213
compound="Cc1csc(=NC2CCCCC2)n1/N=C/c1ccc(O)c(O)c1O [MIM1] + N=C(N)NC(=N)NCCc1ccccc1 [Phenformin] (partner 250 µM)" attribute_measured="relative viability" observed=0.0969
